system: CCRF-CEM leukemia; assay: NCI tumour cell line growth inhibition, 384-well format
For each record, write down the corresponding TGI.
Respond numerically; units are µM and should not be typed.

INPUT: What measured TGI goes with O=C(c1ccc(Oc2ccccc2)cc1Cl)c1c[nH]c2ncnc(N[C@@H]3CC[C@@H](CO)OC3)c12 ?
OUTPUT: 3.4

INPUT: Please give the result for COc1cc2c(Oc3ccc4[nH]c(C)cc4c3F)ncnc2cc1OCCCN1CCCC1 too.
OUTPUT: 2.99

INPUT: Next up: Cc1ccc(NC(=O)c2ccc(CN3CC[C@H](N(C)C)C3)c(C(F)(F)F)c2)cc1Nc1nccc(-c2cncnc2)n1
OUTPUT: 3.44

INPUT: Ok, now CO[C@@H](C)Cn1c(=O)n(C)c2cnc3ccc(-c4cncc(C(C)(C)O)c4)cc3c21
OUTPUT: 0.707

* * *

system: DU-145 prostate; assay: NCI tumour cell line growth inhibition, 384-well format
Readout type: TGI (µM)
# unit: µM | format: bare number

INPUT: Fill in the blank: the reported TGI of COc1cc2c(Oc3ccc4[nH]c(C)cc4c3F)ncnc2cc1OCCCN1CCCC1 is ____.
OUTPUT: 3.77

INPUT: Could you do the same for O=C(c1ccc(Oc2ccccc2)cc1Cl)c1c[nH]c2ncnc(N[C@@H]3CC[C@@H](CO)OC3)c12 , please?
OUTPUT: 1.48

INPUT: Now the same for CO[C@@H](C)Cn1c(=O)n(C)c2cnc3ccc(-c4cncc(C(C)(C)O)c4)cc3c21
OUTPUT: 2.69

INPUT: Try this compound too: Cc1ccc(NC(=O)c2ccc(CN3CC[C@H](N(C)C)C3)c(C(F)(F)F)c2)cc1Nc1nccc(-c2cncnc2)n1
OUTPUT: 18.9

* * *

Consider the following compounds; for each one, report its TGI.
test system: RXF 393 renal; assay: NCI tumour cell line growth inhibition, 384-well format
Provide only the numeric value, understood in µM.

INPUT: Need TGI of O=C(c1ccc(Oc2ccccc2)cc1Cl)c1c[nH]c2ncnc(N[C@@H]3CC[C@@H](CO)OC3)c12 , thanks.
OUTPUT: 0.92

INPUT: Okay, and Cc1ccc(NC(=O)c2ccc(CN3CC[C@H](N(C)C)C3)c(C(F)(F)F)c2)cc1Nc1nccc(-c2cncnc2)n1 ?
OUTPUT: 3.22

INPUT: And the next one, COc1cc2c(Oc3ccc4[nH]c(C)cc4c3F)ncnc2cc1OCCCN1CCCC1 ?
OUTPUT: 2.69

INPUT: What about CO[C@@H](C)Cn1c(=O)n(C)c2cnc3ccc(-c4cncc(C(C)(C)O)c4)cc3c21 ?
OUTPUT: 1.37
